Cited source: PubChem BioAssay (Tox21)

- assayRemarks: Nuclear factor erythroid 2-related factor 2/antioxidant responsive element (Nrf2/ARE) small molecule agonists: luciferase reporter gene qHTS assay in human keratinocytes (AID 1919969); also: nearly all actives have a fitted effect of over 35% in size
- conditionSet: KeratinoSens HaCaT ARE-luciferase, luminescence, 24 h; series mostly up to 92.4 µM
Inconclusive results are not listed. Activity calls are given as the source filed them. Calls follow the shape of the full dose curve.
Hello, when you answer, please use one of the following outcomes: t = active, f = inactive

The examples below pair each entry with its known result.
O=C(N/N=C/c1ccc([N+](=O)[O-])o1)c1cc([N+](=O)[O-])cc([N+](=O)[O-])c1O :: t
CN(C)CCc1c[nH]c2ccc(O)cc12 :: t
O=C(C(Cl)(Cl)Cl)C(Cl)(Cl)Cl :: f
CC(C)CC(C)Nc1ccc(Nc2ccccc2)cc1 (stereo unspecified) :: t
Oc1cccc(Cl)c1 :: f

Asked: State the result this test recorded for `O=C(N[C@@H]1N=C(c2ccccc2F)c2cccc3c2N(CC3)C1=O)c1cc2ccccc2[nH]1` .
Given back: f

====

- assayRemarks: Nuclear factor erythroid 2-related factor 2/antioxidant responsive element (Nrf2/ARE) small molecule agonists: qHTS cell viability counter screen in human keratinocytes (AID 1919968); also: nearly all actives have a fitted effect of over 55% in size
- conditionSet: KeratinoSens HaCaT ARE cells viability, CellTiter-Fluor, 24 h; series mostly up to 92.4 µM
Inconclusive results are not listed. Activity calls are given as the source filed them. Calls follow the shape of the dose curve; as a rule, active = well fitted cell-killing curve with a large enough effect in the repeat runs; inconclusive = weak or mixed curves, or effect the other way; inactive = flat fitted curve, though single readings scatter.
Hello, when you answer, please use one of the following outcomes: true (1) for active, false (0) for inactive

Cc1ccn2nc(S(=O)(=O)Nc3c(F)cccc3F)nc2n1 :: false (0)
COC(=O)N(OC)c1ccccc1COc1ccn(-c2ccc(Cl)cc2)n1 :: false (0)
CCCC[N+](CCCC)(CCCC)CCCC :: false (0)
CCN1CCCC1CNC(=O)C(O)(c1ccccc1)c1ccccc1 (configuration not stated) :: false (0)
N#CCc1ccc(Cl)cc1 :: false (0)
NC1=NC(=O)C(c2ccccc2)O1 (configuration not stated) :: false (0)
c1coc(-c2nc3ccccc3[nH]2)c1 :: false (0)
CCC[CH2][Sn]([CH2]CCC)([O]C(C)=O)[O]C(C)=O :: true (1)

Asked: State the result this test recorded for C=CC(C)(CCC=C(C)C)OC(=O)c1ccccc1N (configuration not stated) .
Given back: false (0)

Asked: Next up: CCn1cc[n+](C)c1 (tested in a mixture with another compound)
Given back: false (0)

Asked: Next up: `CN1COCN(Cc2cnc(Cl)s2)/C1=N\[N+](=O)[O-]`
Given back: false (0)

Asked: Next up: CCOP(=S)(OCC)OC(Cl)C(Cl)(Cl)Cl (configuration not stated)
Given back: false (0)

====

- target: 5-hydroxytryptamine receptor 2A (Homo sapiens) (UniProt P28223)
- Sequence (P28223 whole entry, looked up): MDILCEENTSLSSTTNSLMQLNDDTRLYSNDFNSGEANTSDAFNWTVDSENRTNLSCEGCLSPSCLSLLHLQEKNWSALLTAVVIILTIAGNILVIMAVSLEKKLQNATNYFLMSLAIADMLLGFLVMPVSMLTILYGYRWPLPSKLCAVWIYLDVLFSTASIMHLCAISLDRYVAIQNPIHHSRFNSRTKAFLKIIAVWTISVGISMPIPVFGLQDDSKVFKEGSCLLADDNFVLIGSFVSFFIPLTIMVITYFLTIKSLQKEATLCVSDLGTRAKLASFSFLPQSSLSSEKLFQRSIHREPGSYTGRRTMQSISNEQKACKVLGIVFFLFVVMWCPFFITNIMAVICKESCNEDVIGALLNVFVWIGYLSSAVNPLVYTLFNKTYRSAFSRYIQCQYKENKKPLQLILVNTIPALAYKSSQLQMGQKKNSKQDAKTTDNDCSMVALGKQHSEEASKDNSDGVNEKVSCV
- assayRemarks: 5-hydroxytryptamine receptor 2A (HTR2A) small molecule antagonists, cell-based qHTS assay (AID 1963586); also: nearly all actives have a fitted effect of over 45% in size
- conditionSet: HTR2A-CHO cells, DOI-induced calcium flux, fluorescence; series mostly up to 61.5 µM
Inconclusive results are not listed. Activity calls are given as the source filed them. Calls follow the shape of the full dose curve.
Hello, when you answer, please use one of the following outcomes: 1.0 for active, 0.0 for inactive

CCOP(=O)(NC(C)C)Oc1ccc(SC)c(C)c1 (centres undefined) :: 0.0
BrCC1CO1 (centres undefined) :: 0.0
Clc1ccc(C(Cl)(Cl)Cl)cc1Cl :: 0.0
O=C1OC(=O)C2C1C1(Cl)C(Cl)=C(Cl)C2(Cl)C1(Cl)Cl (centres undefined) :: 0.0

Asked: State the result this test recorded for `Cc1ncc(C[n+]2csc(CCO)c2C)c(N)n1` .
Given back: 0.0

Asked: Next up: CC(C)N(CCC(C(N)=O)(c1ccccc1)c1ccccn1)C(C)C (centres undefined)
Given back: 0.0

Asked: Next up: `O=C(CBr)Nc1ccc(Cl)cc1C(=O)c1ccccc1F`
Given back: 0.0

Asked: Next up: `C=CCC1=C(C)[C@@H](OC(=O)[C@@H]2[C@@H](C=C(C)C)C2(C)C)CC1=O`
Given back: 0.0

Asked: Next up: `CCc1cccc(C)c1N(C(=O)CCl)[C@@H](C)COC`
Given back: 0.0

Asked: Next up: `CCCCCC[N+](=O)[O-]`
Given back: 0.0

Asked: Next up: `CC(C)CP(=S)(S)CC(C)C`
Given back: 0.0

Asked: Next up: `CCc1cc(OC)c(C[C@H](C)N)cc1OC`
Given back: 0.0

Asked: Next up: `O=[N+]([O-])[O-].[Tl+]`
Given back: 0.0

Asked: Next up: `c1ccc2nc(N3CCNCC3)ccc2c1`
Given back: 1.0

====

- target: Muscarinic acetylcholine receptor M1 (Homo sapiens)
- assayRemarks: Cholinergic receptor muscarinic 1 (CHRM1) small molecule agonists, cell-based qHTS assay (AID 1963589); also: % is scaled to controls: 0 for no effect and ±100 for the full control effect; nearly all actives have a fitted effect of over 35% in size
- conditionSet: CHRM1-CHO cells, agonist mode, calcium flux fluorescence; series mostly up to 76.8 µM
Active and inactive are the calls of the source. The call rests on the fitted dose curve.
experimentalReadout: outcome

CC(C)(C#N)C(C)(C)C#N :: inactive
c1ccc(C2CC2)c(OCC2=NCCN2)c1 :: inactive
CSCC[C@H](NC(=O)[C@H](Cc1c[nH]c2ccccc12)NC(=O)CCNC(=O)OC(C)(C)C)C(=O)N[C@@H](CC(=O)O)C(=O)N[C@@H](Cc1ccccc1)C(N)=O :: inactive
Oc1c(I)cc(I)cc1I :: inactive

Asked: // outcome lookup, key: CCC(Cl)CCl (configuration not stated)
Given back: inactive

Asked: Next up: `CCNS(=O)(=O)C(F)(F)C(F)(F)C(F)(F)C(F)(F)C(F)(F)C(F)(F)C(F)(F)C(F)(F)F`
Given back: inactive

Asked: Next up: `COc1cc(Cl)c(OC)cc1Cl`
Given back: inactive

Asked: Next up: `NC(=O)C(Cl)Cl`
Given back: inactive

Asked: Next up: `N#CCCSCCC#N`
Given back: inactive

Asked: Next up: `COC(C)(C)CCC[C@H](C)C/C=C/C(C)=C/C(=O)OC(C)C`
Given back: inactive

Asked: Next up: CCCC(C)C1(CC)C(=O)N=C(S)NC1=O (configuration not stated)
Given back: inactive

Asked: Next up: CCn1cc[n+](C)c1 (tested in a mixture with another compound)
Given back: inactive

====

- target: D(2) dopamine receptor (Homo sapiens) (UniProt P14416)
- Sequence (P14416 whole entry, looked up): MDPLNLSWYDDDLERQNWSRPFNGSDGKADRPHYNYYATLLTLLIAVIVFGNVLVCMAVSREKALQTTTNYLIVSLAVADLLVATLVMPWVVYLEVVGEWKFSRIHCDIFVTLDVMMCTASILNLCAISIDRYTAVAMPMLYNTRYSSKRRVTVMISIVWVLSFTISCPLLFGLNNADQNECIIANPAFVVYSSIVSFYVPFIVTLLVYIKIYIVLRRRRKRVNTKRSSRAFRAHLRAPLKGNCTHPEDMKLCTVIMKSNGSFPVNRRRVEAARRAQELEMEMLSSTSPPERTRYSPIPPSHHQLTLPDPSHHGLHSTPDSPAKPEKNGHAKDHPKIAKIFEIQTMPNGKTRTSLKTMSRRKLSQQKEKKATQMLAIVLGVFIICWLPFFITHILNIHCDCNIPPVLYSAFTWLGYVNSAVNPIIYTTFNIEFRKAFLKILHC
- assayRemarks: Dopamine D2 receptor (DRD2) small molecule antagonists, cell-based qHTS assay (AID 1963595)
- conditionSet: HEK293-DRD2 cAMP HTRF antagonist mode; series mostly up to 92.4 µM
Records with an inconclusive call do not appear. The source made the active and inactive calls. The call rests on the fitted dose curve; in most records, active means well fitted inhibition curve with a large enough effect in the signal ratio in the repeat runs, with a control signal flat; inconclusive means weak or mixed curves, or effect the other way; inactive means flat fitted curve, though single readings scatter; the % refers to the signal ratio.
Hello, when you answer, please use one of the following outcomes: active, inactive

The examples below pair each entry with its known result.
CC1(C)CC/C(=C/c2ccc(Cl)cc2)C1(O)Cn1cncn1 (centres undefined) :: inactive
ClC1=C(Cl)[C@]2(Cl)[C@@H]3[C@@H]4C[C@@H]([C@H]5O[C@@H]45)[C@@H]3[C@@]1(Cl)C2(Cl)Cl :: active

Asked: State the result this test recorded for `Clc1cccc(N2CCNCC2)c1` .
Given back: inactive

Asked: Next up: `C=C(C)[C@H]1CN[C@H](C(=O)O)[C@H]1CC(=O)O`
Given back: inactive

Asked: Next up: `CO/C=C(/C(=O)OC)c1ccccc1COc1cccc(C(F)(F)F)n1`
Given back: inactive

Asked: Next up: CC(C)N(CCC(C(N)=O)(c1ccccc1)c1ccccn1)C(C)C (centres undefined)
Given back: inactive

Asked: Next up: `c1coc(-c2nc3ccccc3[nH]2)c1`
Given back: inactive

Asked: Next up: `COP(=O)(OC)SCn1c(=O)oc2cc(Cl)cnc21`
Given back: inactive

Asked: Next up: CC(C)NCC(O)c1ccc(N)c(C#N)c1 (centres undefined)
Given back: active

Asked: Next up: CC1COC(Cn2cncn2)(c2ccc(Oc3ccc(Cl)cc3)cc2Cl)O1 (centres undefined)
Given back: inactive

====

- assayRemarks: p53 small molecule agonists, cell-based qHTS assay with human liver microsomes: qHTS cell viability counter screen (AID 1963579); also: nearly all actives have a fitted effect of over 45% in size
- conditionSet: p53RE-bla HCT-116 viability, ATP luminescence, 16 h, HLM; series mostly up to 66 µM
Records with an inconclusive call do not appear. The source made the active and inactive calls. Calls follow the shape of the full dose curve.
Hello, when you answer, please use one of the following outcomes: active, inactive

The examples below pair each entry with its known result.
CCC(C)(C)c1cc(-n2nc3ccccc3n2)c(O)c(C(C)(C)CC)c1 :: inactive
CCCCNC(=O)OCC#CI :: inactive
CC(=O)[O][Sn]([c]1ccccc1)([c]1ccccc1)[c]1ccccc1 :: active
FC(F)(F)c1cccc(C2=CCN(CCc3ccc4ccccc4c3)CC2)c1 :: inactive
C[C@]12CC[C@H]3[C@@H](CCC4=CC(=O)CC[C@@H]43)[C@@H]1CC[C@@H]2OC(=O)CCc1ccco1 :: inactive
CN=CNc1ccc(C)cc1C :: inactive
O=[N+]([O-])c1cccc(CCl)c1 :: inactive
CNC(C)Cc1ccccc1OC (stereo unspecified) :: inactive

Asked: State the result this test recorded for `N#C/C(N)=C(/N)C#N` .
Given back: inactive

Asked: Next up: `ClC(Cl)C(Cl)(Cl)Cl`
Given back: inactive

Asked: Next up: `C=CCOC(=O)C(C)(C)OC(=O)c1cc(-n2c(=O)cc(C(F)(F)F)n(C)c2=O)ccc1Cl`
Given back: inactive

Asked: Next up: `ClC(Cl)=C(Cl)Cl`
Given back: inactive

Asked: Next up: Clc1ccc(CCC(Cn2ccnc2)Sc2c(Cl)cccc2Cl)cc1 (stereo unspecified)
Given back: inactive

Asked: Next up: c1cc(OCC2CO2)ccc1Cc1ccc(OCC2CO2)cc1 (stereo unspecified)
Given back: inactive

Asked: Next up: `O=c1[nH]c(Cl)c(Cl)cc1Cl`
Given back: inactive
